- MEASUREMENT_CONTEXT: 298.15 K; 101.33 kPa; Liquid; Vibrating tube method
MEASURED_PROPERTY: mass density (kg/m3)

| MOLECULE | mass density [kg/m3] |
| --- | --- |
| Cc1ccccc1 | 863.67 |
| CCc1ccccc1 | 862.97 |
| CCCCCCCCO | 823.27 |
| CCCCCCC | 679.55 |
| c1ccccc1 | 873.53 |
| CCCC[N+]1(C)CCOCC1.N#C[C-](C#N)C#N [4-butyl-4-methylmorpholinium tricyanomethanide] | 1067.06 |
| CCCC[N+]1(C)CCCC1.N#CC(=C=[N-])C#N [1-butyl-1-methylpyrrolidinium tricyanomethanide] | 1006.75 |
| CCCCCCO | 814.94 |
| c1ccsc1 | 1058.48 |
| CCCCCCCCCCO | 826.38 |
